Experiment: ATG_RORE_CIS: Attagene CIS-FACTORIAL HepG2 Assay for human RAR-related Orphan Receptor Element (RORE) (AID 2282959)
Conditions: HepG2 Attagene cis-factorial RORE reporter, mRNA; actives raise or lower the signal
Method: ATG_CIS is a cell-based, multiplexed-readout assay that uses HepG2, a human liver cell line, with measurements taken at 24 hours after chemical dosing in a 24-well plate.ATG_RORE_CIS is one of 52 assay component(s) measured or calculated from the ATG_CIS assay. […] This assay endpoint, ATG_RORE_CIS, was analyzed with bidirectional fitting relative to DMSO as the negative control and baseline of activity. […]
The source made the active and inactive calls. Rule for the calls: active = hit-call score of the fitted dose curve at least 0.9, where 1 is the maximum; inactive = score below 0.9.
The categories you may choose from are y for active, n for inactive

Prompt line: What is the recorded call for this molecule in the test? CCCCCCCCCCOC(C)=O
Response line: n

Prompt line: Another molecule: Cc1ccccc1C
Response line: n

Prompt line: Continue with COC=O
Response line: n

Prompt line: What do we get for CC=C1CC2C=CC1C2 (stereo unspecified) ?
Response line: n

Prompt line: Would you mind doing O=C(O)c1cc(Cl)cc([N+](=O)[O-])c1Cl as well?
Response line: n

Prompt line: How about this molecule: C/C=C\C/C=C/CCCCCCCCOC(C)=O
Response line: n

Prompt line: Same question for C1=CCCC1 please.
Response line: n

Prompt line: Quick one: COc1ccc2nc(N)sc2c1
Response line: n

Prompt line: Try O=C1CCCC1 next.
Response line: n

Prompt line: Try the molecule CCCCCCCCCCCSCC(=O)O
Response line: y

Prompt line: # iterate: O=C(c1ccc(O)cc1)c1ccc(O)cc1O
Response line: n

Prompt line: For O=c1[nH]nc(-c2ccc([N+](=O)[O-])o2)o1 then?
Response line: n

Prompt line: Please answer likewise for C=CC(=O)OCCC(=O)O
Response line: n

Prompt line: What do you get for O=C(/C=C/C=C/c1ccc2c(c1)OCO2)N1CCCCC1 ?
Response line: n

Prompt line: Same again, this time with CCCNC(=O)NS(=O)(=O)c1ccc(Cl)cc1
Response line: n

Prompt line: Now consider c1ccc(-c2ccccn2)nc1 .
Response line: n

Origin of values: PubChem BioAssay (EPA / NIEHS)
